Experiment: 3T3 Neutral Red uptake cytotoxicity and phototoxicity assay
Details: mouse, Viability (%), –Irr, 0.316 μg/mL
value-type: viability at 82 min, 0.316 μg/mL

>>> print(df.to_string())
               compound                        value_type  result
0  c1ccc2cc3ccccc3cc2c1  viability at 82 min, 0.316 μg/mL    101%

###

Assay: 3T3 Neutral Red uptake cytotoxicity and phototoxicity assay
Details: mouse, Viability (%), +Irr, 0.1 μg/mL
value-type: viability at 82 min, 0.1 μg/mL (%)

>>> df
               compound                      value_type  quantitative_readout
0  c1ccc2cc3ccccc3cc2c1  viability at 82 min, 0.1 μg/mL                   3.9

###

Assay: 3T3 Neutral Red uptake cytotoxicity and phototoxicity assay
Conditions: mouse, Balb/c 3T3 fibroblasts (clone 31), Viability (%), –Irr, 10 μg/mL
value-type: viability at 82 min, 10 μg/mL (%)

>>> print(df.to_string())
                                   compound  unit_string  quantitative_readout
0  FC(F)(F)C1(c2ccc(C(c3ccc(C4(C(F)(F)F)N=N4)cc3)(C(F)(F)F)C(F)(F)F)cc2)N=N1            %                  97.4

###

Assay: 3T3 Neutral Red uptake cytotoxicity and phototoxicity assay
Conditions: mouse, Balb/c 3T3 fibroblasts (clone 31), Viability (%), +Irr, 1 μg/mL
value-type: viability at 82 min, 1 μg/mL

In [3]: df
Out[3]:
                                   molecule  result
0  FC(F)(F)C1(c2ccc(C(c3ccc(C4(C(F)(F)F)N=N4)cc3)(C(F)(F)F)C(F)(F)F)cc2)N=N1 [BondLynx]   99.6%

###

Assay: In vitro skin corrosion test, MTT viability
Conditions: human, EpiDerm Skin Model (reconstructed human epidermis)
value-type: viability at 3 min (%)

                                   compound  quantitative_readout
0  FC(F)(F)C1(c2ccc(C(c3ccc(C4(C(F)(F)F)N=N4)cc3)(C(F)(F)F)C(F)(F)F)cc2)N=N1 [BondLynx]                   101

###

Assay: 3T3 Neutral Red uptake cytotoxicity and phototoxicity assay
Conditions: mouse, Viability (%), +Irr, 3.16 μg/mL
value-type: viability at 82 min, 3.16 μg/mL (%)

               compound                       value_type  unit_string  quantitative_readout
0  c1ccc2cc3ccccc3cc2c1  viability at 82 min, 3.16 μg/mL            %                   4.2

###

Experiment: 3T3 Neutral Red uptake cytotoxicity and phototoxicity assay
Settings: mouse, Viability (%), +Irr, 31.6 μg/mL
value-type: viability at 82 min, 31.6 μg/mL (%)

               compound                       value_type  unit_string  quantitative_readout
0  c1ccc2cc3ccccc3cc2c1  viability at 82 min, 31.6 μg/mL            %                  8.01

###

Test: 3T3 Neutral Red uptake cytotoxicity and phototoxicity assay
Details: mouse, Balb/c 3T3 fibroblasts (clone 31), Viability (%), –Irr, 1000 μg/mL
value-type: viability at 82 min, 1000 μg/mL (%)

                                   compound  quantitative_readout
0  FC(F)(F)C1(c2ccc(C(c3ccc(C4(C(F)(F)F)N=N4)cc3)(C(F)(F)F)C(F)(F)F)cc2)N=N1                    93

###

Assay: 3T3 Neutral Red uptake cytotoxicity and phototoxicity assay
Conditions: mouse, Balb/c 3T3 fibroblasts (clone 31), Viability (%), –Irr, 316 μg/mL
value-type: viability at 82 min, 316 μg/mL (%)

>>> df
                                   molecule                      value_type  unit_string  quantitative_readout
0  FC(F)(F)C1(c2ccc(C(c3ccc(C4(C(F)(F)F)N=N4)cc3)(C(F)(F)F)C(F)(F)F)cc2)N=N1 [BondLynx]  viability at 82 min, 316 μg/mL            %                   101

###

Test: 3T3 Neutral Red uptake cytotoxicity and phototoxicity assay
Conditions: mouse, Viability (%), +Irr, 10 μg/mL
value-type: viability at 82 min, 10 μg/mL (%)

>>> print(df.to_string())
               compound  quantitative_readout
0  c1ccc2cc3ccccc3cc2c1                   3.3
